RUN DESCRIPTION: Toxicity in Homo sapiens (human) RBCs assessed as hemolytic activity
Assay type: cell-based
EXPERIMENTAL CONTEXT: erythrocyte
TEST READOUT: Activity

[[record]]
mol_smiles = "CC[C@H](C)[C@H](NC(=O)[C@H](CCCCN)NC(=O)[C@H](CCCCN)NC(=O)[C@H](Cc1ccccc1)NC(=O)[C@H](CC(C)C)NC(=O)[C@H](CCCCN)NC(=O)[C@@H](N)CCCCN)C(=O)N[C@@H](CC(C)C)C(=O)N[C@@H](CCCCN)C(=O)N[C@H](C(=O)N[C@@H](CC(C)C)C(N)=O)C(C)C"
test_readout = "Activity"
readout_value = "Toxic"

[[record]]
mol_smiles = "CC(=O)N[C@@H](CCCNC(=N)N)C(=O)N[C@@H](CCCNC(=N)N)C(=O)N[C@@H](CCCCN)C(=O)N[C@@H](CCCCN)C(=O)N[C@@H](Cc1c[nH]c2ccccc12)C(=O)N[C@@H](Cc1ccccc1)C(=O)N[C@@H](Cc1c[nH]c2ccccc12)C(N)=O"
test_readout = "Activity"
readout_value = "Non-toxic"

[[record]]
mol_smiles = "CC(=O)N[C@@H](Cc1cnc[nH]1)C(=O)N[C@@H](CCCNC(=N)N)C(=O)N[C@@H](CCCCN)C(=O)N[C@@H](CCCCN)C(=O)N[C@@H](Cc1c[nH]c2ccccc12)C(=O)N[C@@H](Cc1ccccc1)C(=O)N[C@@H](Cc1c[nH]c2ccccc12)C(N)=O"
test_readout = "Activity"
readout_value = "Non-toxic"

[[record]]
mol_smiles = "CC[C@H](C)[C@H](NC(=O)[C@H](CCCCN)NC(=O)[C@H](CCCCN)NC(=O)[C@H](Cc1ccccc1)NC(=O)[C@H](CC(C)C)NC(=O)[C@H](CCCCN)NC(=O)[C@@H](N)CCCCN)C(=O)N[C@@H](CC(C)C)C(=O)N[C@@H](CCCCN)C(=O)N[C@@H](Cc1ccccc1)C(=O)N[C@@H](CC(C)C)C(N)=O"
test_readout = "Activity"
readout_value = "Toxic"


Cited source: ChEMBL document CHEMBL3046112
